All figures here come from patent US5216142A.

# System: herpes simplex virus Type I (HSV I)
# assay comment: Inhibition of virus replication (plaque assay, BHK-21 cells)
# Type: cell-based, Type 1, Troisbel strain
# measurement conditions: Human alphaherpesvirus 1, BHK-21, 24 h; 0.1 mg/l; read-out: Inhibition of viral replication (log10 reduction in virus titre)
# Experimental: 1. Mono-layers of baby hamster kidney cells (BHK-21) are prepared in Petri dishes containing ETC medium (Eagle's minimal essential medium +10% tryptose phosphate broth +10% new born calf serum). 2. […] 5. The number of plaques formed is then counted and the amount of active virus expressed as the number of plaque forming units (pfus) as follows. […] The number of plaques in each Petri dish is counted. Based on the dilutions, the number of plaque forming virus particles in the original solutions is calculated. […]
log reduction at 0.1 µg/mL vs 1: less than gives criterion met; not less than gives criterion not met.

Worked examples follow.
[
  {
    "compound": "CCCCC/C=C\\C/C=C\\C/C=C\\CCCCC(=O)Nc1nc2c(ncn2COCCO)c(=O)[nH]1",
    "class name": "criterion not met"
  },
  {
    "compound": "Nc1nc2c(ncn2COCCO)c(=O)[nH]1 [AK 9, Acyclovir, reference compound]",
    "class name": "criterion not met"
  },
  {
    "compound": "CCCCC/C=C\\C/C=C\\CCCCCCCC(=O)Nc1nc2c(ncn2COCCO)c(=O)[nH]1",
    "class name": "criterion not met"
  }
]

Exercise: hey, is log reduction at 0.1 µg/mL for CCCCC/C=C\C/C=C\C/C=C\CCCCC(=O)Nc1nc2c(ncn2COCCOC(=O)CCCC/C=C\C/C=C\C/C=C\CCCCC)c(=O)[nH]1 lower than 1 or not?
Solution: criterion met

---

property: % in chloroform phase (partition co-efficients, water/chloroform) (%)
Field format: number, assumed %, no unit text.

[
  {
    "compound": "Cc1cn2c(nc1=O)O[C@@H]1C[C@H]2O[C@@H]1CO [AK 8, Anhydrothymidine, reference compound]",
    "uom": "%",
    "value measured": 4
  }
]

Exercise: Entry under review: Cc1cn([C@H]2C[C@H](N=[N+]=[N-])[C@@H](CO)O2)c(=O)[nH]c1=O [AK 7, zidovudine, reference compound] . Reported % in chloroform phase (partition co-efficients, water/chloroform)?
Solution: 15

---

Listing of recorded CD50 (50% cytotoxic dose) by entry.
# System: MT-4 cells
# assay comment: in vitro
# Format: cell-based
# measurement conditions: human, 120 h
Number in µg/mL, nothing else.

As a guide, the following entries are already answered.
[
  {
    "compound": "Cc1cn([C@H]2C[C@H](N=[N+]=[N-])[C@@H](CO)O2)c(=O)[nH]c1=O [AK 7, zidovudine, reference compound]",
    "value measured": 1.5633
  },
  {
    "compound": "Cc1cn([C@H]2C=C[C@@H](CO)O2)c(=O)[nH]c1=O [AK 16, dideoxy-didehydro thymidine, reference compound]",
    "value measured": 46.65
  },
  {
    "compound": "CCCCC/C=C\\C/C=C\\C/C=C\\CCCCC(=O)OC[C@@H]1C=C[C@H](n2cc(C)c(=O)[nH]c2=O)O1 [AK 14]",
    "value measured": 8.84
  }
]

Shift focus to the following entry.
Exercise: Entry CCCCC/C=C\C/C=C\C/C=C\CCCCC(=O)OCCOCn1cnc2c(=O)[nH]c(N)nc21 [AK 5] has what CD50 (50% cytotoxic dose)?
Solution: 18.7751

---

# Tested on: LAV-2ROD
# assay comment: Anti-HIV activity assay, LAV-2ROD (MT-4 cells, MTT method)
# Assay type: cell-based
# measurement conditions: MT4, 120 h; MT-4 cells, five days, LAV-2ROD; read-out: ED50 (50% effective dose)
property: EC50 (µg/mL)
Write the number in µg/mL without appending the unit.

Past entries and their recorded results:
[
  {
    "compound": "Cc1cn([C@H]2C=C[C@@H](CO)O2)c(=O)[nH]c1=O [AK 16, dideoxy-didehydro thymidine, reference compound]",
    "uom": "µg/mL",
    "EC50": 0.039
  },
  {
    "compound": "CCCCC/C=C\\C/C=C\\CCCCCCCC(=O)OC[C@H]1O[C@@H](n2cc(C)c(=O)[nH]c2=O)C[C@@H]1N=[N+]=[N-] [AK 2]",
    "uom": "µg/mL",
    "EC50": 0.000744
  },
  {
    "compound": "CCCCC/C=C\\C/C=C\\C/C=C\\CCCCC(=O)OC[C@@H]1C=C[C@H](n2cc(C)c(=O)[nH]c2=O)O1 [AK 14]",
    "uom": "µg/mL",
    "EC50": 0.08
  }
]

Exercise: State the recorded EC50 for this entry: CCCCC/C=C\C/C=C\CCCCCCCC(=O)OC[C@@H]1C=C[C@H](n2cc(C)c(=O)[nH]c2=O)O1 [AK 15]
Solution: 0.064

Exercise: // EC50 lookup, key: Cc1cn([C@H]2C[C@H](N=[N+]=[N-])[C@@H](CO)O2)c(=O)[nH]c1=O [AK 7, zidovudine, reference compound]
Solution: 0.00053

Exercise: Need EC50, item Cc1cn2c(nc1=O)O[C@@H]1C[C@H]2O[C@@H]1CO [AK 8, Anhydrothymidine, reference compound]
Solution: 21.8

Exercise: What value of EC50 has been reported for the following compound? CCCCC/C=C\C/C=C\C/C=C\CCCCC(=O)OC[C@H]1O[C@@H](n2cc(C)c(=O)[nH]c2=O)C[C@@H]1N=[N+]=[N-] [AK 1, GLA - 3'azido-3'-deoxythymidine]
Solution: 0.000858

---

property: % in chloroform phase (partition co-efficients, water/chloroform)

Guide cases for % in chloroform phase (partition co-efficients, water/chloroform), answers given:
[
  {
    "compound": "CCCCC/C=C\\C/C=C\\C/C=C\\CCCCC(=O)Nc1nc2c(ncn2COCCOC(=O)CCCC/C=C\\C/C=C\\C/C=C\\CCCCC)c(=O)[nH]1 [AK 10, digamma-linolenyl acyclovir]",
    "value measured": "> 99%"
  },
  {
    "compound": "Nc1nc2c(ncn2COCCO)c(=O)[nH]1 [AK 9, Acyclovir, reference compound]",
    "value measured": "1%"
  }
]

Exercise: Quick one: % in chloroform phase (partition co-efficients, water/chloroform) for CCCCC/C=C\C/C=C\C/C=C\CCCCC(=O)OC[C@H]1O[C@@H]2C[C@H]1Oc1nc(=O)c(C)cn12 [AK 3, GLA - Anhydrothymidine] ?
Solution: > 98%

Exercise: May I ask what % in chloroform phase (partition co-efficients, water/chloroform) has been recorded for CCCCC/C=C\C/C=C\C/C=C\CCCCC(=O)OCCOCn1cnc2c(=O)[nH]c(N)nc21 [AK 5] ?
Solution: > 99%

Exercise: I have this compound here, CCCCC/C=C\C/C=C\C/C=C\CCCCC(=O)OC[C@H]1O[C@@H](n2cc(C)c(=O)[nH]c2=O)C[C@@H]1N=[N+]=[N-] [AK 1, GLA - 3'azido-3'-deoxythymidine] , and I need its recorded % in chloroform phase (partition co-efficients, water/chloroform).
Solution: > 99%

Exercise: // % in chloroform phase (partition co-efficients, water/chloroform) lookup, key: CCCCC/C=C\C/C=C\CCCCCCCC(=O)Nc1nc2c(ncn2COCCOC(=O)CCCCCCC/C=C\C/C=C\CCCCC)c(=O)[nH]1 [AK 11]
Solution: > 99%

Exercise: Which measured % in chloroform phase (partition co-efficients, water/chloroform) value corresponds to CCCCC/C=C\C/C=C\CCCCCCCC(=O)OCCOCn1cnc2c(=O)[nH]c(N)nc21 [AK 6] ?
Solution: > 99%

---

Measured CC50 at 120 h accompanies every entry in the list below.
# assay comment: in vitro
# Format: cell-based
# measurement conditions: human, mt-4 cells, CD50 (50% cytotoxic dose)
Record the value in µg/mL, omitting the unit from your answer.

These solved cases illustrate the format of a correct answer.
[
  {
    "compound": "CCCCC/C=C\\C/C=C\\CCCCCCCC(=O)OC[C@H]1O[C@@H](n2cc(C)c(=O)[nH]c2=O)C[C@@H]1N=[N+]=[N-] [AK 2]",
    "CC50 at 120 h, µg/mL": 9.49
  },
  {
    "compound": "CCCCC/C=C\\C/C=C\\C/C=C\\CCCCC(=O)OC[C@H]1O[C@@H](n2cc(C)c(=O)[nH]c2=O)C[C@@H]1N=[N+]=[N-] [AK 1, GLA - 3'azido-3'-deoxythymidine]",
    "CC50 at 120 h, µg/mL": 6.03
  },
  {
    "compound": "CCCCC/C=C\\C/C=C\\CCCCCCCC(=O)Nc1nc2c(ncn2COCCOC(=O)CCCCCCC/C=C\\C/C=C\\CCCCC)c(=O)[nH]1 [AK 11]",
    "CC50 at 120 h, µg/mL": 13.1
  },
  {
    "compound": "CCCCC/C=C\\C/C=C\\C/C=C\\CCCCC(=O)OCCOCn1cnc2c(=O)[nH]c(N)nc21 [AK 5]",
    "CC50 at 120 h, µg/mL": 17.2
  },
  {
    "compound": "CCCCC/C=C\\C/C=C\\CCCCCCCC(=O)OC[C@@H]1C=C[C@H](n2cc(C)c(=O)[nH]c2=O)O1 [AK 15]",
    "CC50 at 120 h, µg/mL": 16.5
  }
]

Exercise: Form field: reported CC50 at 120 h of Nc1nc2c(ncn2COCCO)c(=O)[nH]1 [AK 9, Acyclovir, reference compound]
Solution: 300

Exercise: Entry under review: Cc1cn([C@H]2C[C@H](N=[N+]=[N-])[C@@H](CO)O2)c(=O)[nH]c1=O [AK 7, zidovudine, reference compound] . Reported CC50 at 120 h?
Solution: 1.54
